B1: TPR 5TU (parent)
chain: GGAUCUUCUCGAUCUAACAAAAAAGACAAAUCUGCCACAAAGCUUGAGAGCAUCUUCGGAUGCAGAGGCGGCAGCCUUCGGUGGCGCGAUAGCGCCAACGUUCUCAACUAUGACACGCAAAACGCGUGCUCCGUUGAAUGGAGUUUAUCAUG

# Variants of: B1
# assay_protocol: polymerase ribozyme fitness, log enrichment relative to wild type (log ratio); higher = more active; in vitro selection for triplet polymerase activity
Fewer inactive variants are shown than the library holds.
Task for the reader: assign each of the following variants its reported polymerase ribozyme fitness (log ratio).
Answers are plain numbers.

Consider the following illustrative entries.
change: C14G A37C
measured_attribute: polymerase ribozyme fitness (log ratio)
quantitative_result: -3.05
--
change: A89C C95U
measured_attribute: polymerase ribozyme fitness (log ratio)
quantitative_result: -1.49
--
change: A52G C93G G141C
measured_attribute: polymerase ribozyme fitness (log ratio)
quantitative_result: -3.74
--
change: U61G C99U
measured_attribute: polymerase ribozyme fitness (log ratio)
quantitative_result: -2.77
--
change: G42U C108U C125U A138U U148A
measured_attribute: polymerase ribozyme fitness (log ratio)
quantitative_result: -4.13

# batch: return polymerase ribozyme fitness (log ratio) for each of the 3 variants below
1. G48U U55A C99U
2. A40C A52U U55A C93U
3. A12U G143U

-2.23
-3.92
-3.14
